# Test system: KM12
# Assay method text: NCI tumour cell line growth inhibition, 48 h
The source made the active and inactive calls. Rule as the data show it: active = GI50 up to about 1.1 µM and inactive = higher.
Tick one outcome: YES = active, NO = inactive

Past entries and their recorded results:
>  <Molecule>
CCCCCCCC(=O)NS(=O)(=O)c1ccccc1

>  <Label class>
NO

$$$$
>  <Molecule>
CCCCCCCC/C=C\CCCCCCCCCCCC(=O)O [ERUCIC ACID]

>  <Label class>
NO

$$$$
>  <Molecule>
COc1cccc2c1C(=O)c1c(O)c3c(c(O)c1C2=O)C[C@@](O)(C(C)=O)C[C@@H]3OC1OC(C)C(O)C(N)C1Br (stereo not given in full)

>  <Label class>
YES

$$$$
>  <Molecule>
CC(C)(C)OC(=O)NC(Cc1ccc(OCc2ccccc2)cn1)C(=O)N1CCSCC1 (stereo not given)

>  <Label class>
NO

$$$$

Now consider a different molecule.
Would you mind telling me which call this test gave `C=CC(C)(C)N[C@@H](C(=O)N1CCC[C@H]1c1nc(-c2nc(C(=O)OCC=C(C)C)c(C)o2)c(C)o1)C(C)C` ?
NO
